- Method description: in vivo
- Settings: Wistar, rat
Think of 6 h as a floor: if half-life stands on it or above, it is 1; beneath it, -1.

Compound structure string	Group label
CC(C)N1CCC(Oc2ccc3c(c2)cc(C(=O)N2CCC(F)(F)CC2)n3C(C)C)CC1	1
CC(C)N1CCC(Oc2ccc3c(c2)cc(C(=O)N2CCC(F)(F)CC2)n3CC(F)(F)F)CC1	-1
CC(C)N1CCC(Oc2ccc3[nH]c(C(=O)N4CCC(F)(F)CC4)cc3c2)CC1	-1

With those in mind, consider the next molecule.
Test whether the molecule CC(C)N1CCC(Oc2ccc3[nH]c(C(=O)N4CCOCC4)cc3c2)CC1 records half-life of 6 h or higher.
-1

Data provenance is ChEMBL document CHEMBL1136951.
